# System: TNFα
# experiment_description: Cot Monocyte TNFα Cell Based Assay
# run_parameters: Homo sapiens, Monocyte, read-out: EC50 TNF, LPS-stimulated human monocytes, TNFα
Each record's EC50 is compared with I = under 70 nM, II = from 70 nM up to 1000 nM, III = 1000 nM and over to give its class.

The examples below pair each entry with its known result.
compound: N#Cc1cnc2c(Cl)cc(N[C@@H](c3cnc(F)c(F)c3)c3c[nH]nn3)cc2c1Nc1cnc(F)c(F)c1 [Example 163]
subject_of_test: TNFα
assigned_category: III
--
compound: N#Cc1cnc2c(Cl)cc(N[C@@H](c3cccnc3)c3cn(C4COC4)nn3)cc2c1NC1CCOCC1 [Example 201]
subject_of_test: TNFα
assigned_category: III
--
compound: CC(C)(C)CNc1c(C#N)cnc2c(C#N)cc(N[C@H](c3cn(C4(C(F)F)CC4)nn3)c3cccc4ccncc34)cc12 [Example 552]
subject_of_test: TNFα
assigned_category: I

Task item: Looking at Cc1ncsc1[C@H](Nc1cc(Cl)c2ncc(C#N)c(Nc3cnc(F)c(F)c3)c2c1)c1c[nH]nn1 [Example 170] , which class would you pick?
Reply: III

Task item: Which EC50 category applies to Cn1cc([C@@H](Nc2cc(Cl)c3ncc(C#N)c(Nc4ccc(F)c(Cl)c4)c3c2)c2cccnc2)nn1 [Example 406] here?
Reply: II

Task item: Which class does CCN1CCC(n2cc([C@H](c3cccnc3)N(CC)c3cc(Cl)c4ncc(C#N)c(Nc5ccc(F)c(Cl)c5)c4c3)nn2)CC1 [Example 368] fall in?
Reply: III

Task item: The entry to classify is Cn1ccc2c([C@H](Nc3cc(Cl)c4ncc(C#N)c(NCC(C)(C)C(F)(F)F)c4c3)c3cn(C4(C(F)F)CC4)nn3)cccc2c1=O [Example 724] ; which class holds it?
Reply: I

Task item: For the record Cc1nc(F)ccc1[C@H](Nc1cc(Cl)c2ncc(C#N)c(NCC(C)(C)C)c2c1)c1cn(C2CC(F)(F)C2)nn1 [Example 645] , report the class its EC50 corresponds to.
Reply: I

Task item: Exam item: assign CC(C)(C)CNc1c(C#N)cnc2c(Cl)cc(N[C@H](c3cn(C4(C(N)=O)CCC4)nn3)c3cccc4ncccc34)cc12 [Example 566] to the correct category.
Reply: II

Task item: # bin lookup: classify CC(C)(C)N1CCC(n2cc([C@@H](Nc3cc(Cl)c4ncc(C#N)c(Nc5ccc(F)c(Cl)c5)c4c3)c3ccc(F)nc3)nn2)CC1 [Example 347] by its EC50
Reply: II

Task item: Sort into band: N#CCC[C@@H](Nc1c(C#N)cnc2c(Cl)cc(N[C@H](c3cn(C4CC4)nn3)c3cccc4ncsc34)cc12)c1ccccc1 [Example 69]
Reply: I

Task item: Any idea which band Cn1ncc2c([C@H](Nc3cc(C#N)c4ncc(C#N)c(NCC(C)(C)C)c4c3)c3cn(C4CC4)nn3)cccc21 [Example 609] is in?
Reply: I

----------
# Tested on: TNFα
# experiment_description: Cot Monocyte TNFα Cell Based Assay
# run_parameters: Homo sapiens, Monocyte, read-out: EC50 TNF, LPS-stimulated human monocytes, TNFα TR-FRET
Parameter: EC50. Scope: all listed entries.

smiles_data: CC1(n2cc([C@@H](Nc3cc(C#N)c4ncc(C#N)c(NCC(C)(C)C(F)(F)F)c4c3)c3cccc4ncccc34)nn2)CC1
EC50: 0.041 µM

Task item: Print TNFα EC50 for Cn1ccc2c([C@H](Nc3cc(C#N)c4ncc(C#N)c(NCC(C)(C)C(F)(F)F)c4c3)c3cn(C4(C(F)F)CC4)nn3)cccc2c1=O .
Reply: 0.084 µM

Task item: GET EC50 | system: TNFα | item: Cn1ccc2c([C@H](Nc3cc(Cl)c4ncc(C#N)c(NCC(C)(C)C)c4c3)c3cn(C45CCC(CC4)CC5)nn3)cccc2c1=O
Reply: 0.104 µM
